# Experimental Details: recombinant UMI read abundance after kanamycin selection (control-corrected) (log10(CPM+1)); higher = more efficient recombination; extreme values may be limits of the assay; sequences stand for … in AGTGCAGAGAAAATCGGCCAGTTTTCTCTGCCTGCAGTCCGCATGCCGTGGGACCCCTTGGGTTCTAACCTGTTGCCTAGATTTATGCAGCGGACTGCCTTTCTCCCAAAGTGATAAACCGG…AGGTTGGTTTCACT; site = the 11-nt donor;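 also: IS621 bridge recombinase in Escherichia coli cells against a fixed T5 target plasmid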
Parameter threshold = 0.3. Response is condition met when recombinant UMI read abundance (log10) meets or exceeds it, else condition not met.

Please review the following examples before continuing.
{"Entry Sequence": "AGGGAGTCATGGACCGGTTTTCCCGGTAATCCGTATTTGCA (site AGGGAGTCTTG)", "Assigned Label": "condition met"}
{"Entry Sequence": "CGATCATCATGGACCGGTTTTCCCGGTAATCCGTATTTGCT (site CGACCCTCTAG)", "Assigned Label": "condition not met"}
{"Entry Sequence": "CTTCTCTCATGGACCGGTTTTCCCGGTAATCCGTATTTGTA (site CTTCCCTCTTA)", "Assigned Label": "condition not met"}
{"Entry Sequence": "CCGCACACATGGACCGGTTTTCCCGGTAATCCGTATTTGTA (site CCACACACTTA)", "Assigned Label": "condition met"}
{"Entry Sequence": "TTTCTAGCATGGACCGGTTTTCCCGGTAATCCGTATTTGGT (site TTTCTAGCTAC)", "Assigned Label": "condition not met"}
{"Entry Sequence": "GGTCCAACATGGACCGGTTTTCCCGGTAATCCGTATTTGTA (site GGTGCAACTTA)", "Assigned Label": "condition not met"}
{"Entry Sequence": "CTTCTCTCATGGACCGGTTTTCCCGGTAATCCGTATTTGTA (site CTGCTCTCTTA)", "Assigned Label": "condition met"}
{"Entry Sequence": "GAGTAGCCATGGACCGGTTTTCCCGGTAATCCGTATTTGTC (site GAGTAGCCTGA)", "Assigned Label": "condition not met"}
{"Entry Sequence": "AATCATGCATGGACCGGTTTTCCCGGTAATCCGTATTTGGA (site AATCATGCTTC)", "Assigned Label": "condition met"}
{"Entry Sequence": "GAGATCACATGGACCGGTTTTCCCGGTAATCCGTATTTGAT (site GAGTTCACTAT)", "Assigned Label": "condition not met"}

For this sequence, is measured recombinant UMI read abundance (log10) 0.3 or higher? TATGGCCCATGGACCGGTTTTCCCGGTAATCCGTATTTGAT (site TATGGCCCTAT)
condition not met

Evaluate TGGTAACCATGGACCGGTTTTCCCGGTAATCCGTATTTGTG (site TGGTAACCTCA) : recombinant UMI read abundance (log10) at minimum 0.3?
condition not met

Is recombinant UMI read abundance (log10) at least 0.3? Consider TTACGTTCATGGACCGGTTTTCCCGGTAATCCGTATTTGAG (site TTACGTTCTCT)
condition met

Test whether the sequence CTCCACGCATGGACCGGTTTTCCCGGTAATCCGTATTTGTT (site CTCCACGCTAA) records recombinant UMI read abundance (log10) of 0.3 or higher.
condition met

# bool: recombinant UMI read abundance (log10) of AGTAAGACATGGACCGGTTTTCCCGGTAATCCGTATTTGCA (site AGTAAGACTTG) >= 0.3
condition met

Given the entry CCATCGACATGGACCGGTTTTCCCGGTAATCCGTATTTGTT (site CGATCGACTAA) , answer whether its recombinant UMI read abundance (log10) meets or surpasses 0.3.
condition not met

Reported recombinant UMI read abundance (log10) at or above 0.3? CCCCACACATGGACCGGTTTTCCCGGTAATCCGTATTTGAA (site CCCCACACTTC)
condition met

Would you say CTCAGGACATGGACCGGTTTTCCCGGTAATCCGTATTTGAG (site CTCAGGACTCT) shows recombinant UMI read abundance (log10) at minimum 0.3?
condition not met

Entry CGACTTGCATGGACCGGTTTTCCCGGTAATCCGTATTTGAT (site CGACTTGCTAT) : is its recombinant UMI read abundance (log10) no less than 0.3?
condition met

Could you tell me if the measured recombinant UMI read abundance (log10) of TCCAAATCATGGACCGGTTTTCCCGGTAATCCGTATTTGCC (site TCCAAGTCTGG) reaches 0.3 or more?
condition not met
